Reference source for all entries: patent US20240246979A1

- system_tested: cGAS (Homo sapiens, UniProt Q8N884)
- Sequence (Q8N884 whole entry): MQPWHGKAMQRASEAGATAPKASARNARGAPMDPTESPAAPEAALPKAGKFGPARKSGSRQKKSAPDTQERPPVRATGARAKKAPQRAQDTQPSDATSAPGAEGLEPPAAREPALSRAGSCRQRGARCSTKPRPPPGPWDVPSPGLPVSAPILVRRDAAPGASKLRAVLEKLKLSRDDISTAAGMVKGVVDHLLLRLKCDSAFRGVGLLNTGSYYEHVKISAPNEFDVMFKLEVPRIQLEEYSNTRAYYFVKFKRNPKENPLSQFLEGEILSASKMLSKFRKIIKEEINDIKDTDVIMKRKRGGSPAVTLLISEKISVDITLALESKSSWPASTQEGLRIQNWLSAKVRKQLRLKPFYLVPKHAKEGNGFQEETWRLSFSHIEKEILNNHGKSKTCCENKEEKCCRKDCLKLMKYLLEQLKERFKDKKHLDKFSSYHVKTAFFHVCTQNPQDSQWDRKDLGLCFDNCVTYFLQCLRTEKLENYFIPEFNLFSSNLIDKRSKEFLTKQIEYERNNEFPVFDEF
- test: Cellular assay to measure cGAS activity (IFNb AlphaLISA in THP1 cells stimulated by RDG-Adenovirus-GFP)
- Type: cell-based
- Parameters: host or cells: THP1 cells differentiated with PMA and stimulated with RDG-Adenovirus-GFP
- condition: PMA-differentiated THP1 cells, RDG-Adenovirus-GFP at 1000 MOI; inhibition of IFNb production as marker for cGAS activity
pIC50: −log10 of the molar value.
observed_property: pIC50

Some compounds with recorded pIC50:
(Q) State the recorded pIC50 for this entry: CN(C)CCC1CNC(=O)Cc2c1[nH]c1c(Cl)c(Cl)cc(-c3cnn(C)n3)c21 (centres unmarked)
(A) 6.24

(Q) State the recorded pIC50 for this entry: CC1C(=O)NCCc2c1c1c(OCCCO)cc(Cl)c(Cl)c1n2C (centres unmarked)
(A) 6.07

(Q) State the recorded pIC50 for this entry: CC(F)(F)C[C@@H]1CNC(=O)Cc2c1[nH]c1c(Cl)c(Cl)cc(CC#N)c21 (single isomer, unassigned) [Example 138]
(A) 6.37

(Q) State the recorded pIC50 for this entry: C[C@@H](O)CNc1cc(Cl)c(Cl)c2c1c1c(n2C)CCNC(=O)[C@@H]1C (single isomer, unassigned) [Example 100]
(A) 5.95

(Q) State the recorded pIC50 for this entry: CC[C@H]1C(=O)NCCc2[nH]c3c(Cl)c(Cl)cc(OCC#N)c3c21 (single isomer, unassigned) [Example 35]
(A) 5.43

[a] Cc1conc1Nc1cc(Cl)c(Cl)c2[nH]c3c(c12)C(C)C(=O)NCC3 (centres unmarked)
[b] CC1C(=O)NCCc2c1c1c(NC(=O)CO)cc(Cl)c(Cl)c1n2C(F)F (centres unmarked)
[c] Cn1c2c(c3c(CC#N)cc(Cl)c(Cl)c31)CC(=O)NCC2CCO (centres unmarked)
(Q) Order the records, beginning with the lowest pIC50 and ending with the highest. Provide your answer as the labels ordered per the instruction.
(A) a, b, c
(a: 5.99, b: 6.19, c: 6.74)
